- Measured On: Human COX-1 (Homo sapiens)
- Construct: A 2.0 kb fragment containing the coding region of either human or murine COX-1 or human or murine COX-2; made in house; host or cells: SF9 insect cells (baculovirus, transfer vector pVL1393)
- Sequence (P23219 24-599): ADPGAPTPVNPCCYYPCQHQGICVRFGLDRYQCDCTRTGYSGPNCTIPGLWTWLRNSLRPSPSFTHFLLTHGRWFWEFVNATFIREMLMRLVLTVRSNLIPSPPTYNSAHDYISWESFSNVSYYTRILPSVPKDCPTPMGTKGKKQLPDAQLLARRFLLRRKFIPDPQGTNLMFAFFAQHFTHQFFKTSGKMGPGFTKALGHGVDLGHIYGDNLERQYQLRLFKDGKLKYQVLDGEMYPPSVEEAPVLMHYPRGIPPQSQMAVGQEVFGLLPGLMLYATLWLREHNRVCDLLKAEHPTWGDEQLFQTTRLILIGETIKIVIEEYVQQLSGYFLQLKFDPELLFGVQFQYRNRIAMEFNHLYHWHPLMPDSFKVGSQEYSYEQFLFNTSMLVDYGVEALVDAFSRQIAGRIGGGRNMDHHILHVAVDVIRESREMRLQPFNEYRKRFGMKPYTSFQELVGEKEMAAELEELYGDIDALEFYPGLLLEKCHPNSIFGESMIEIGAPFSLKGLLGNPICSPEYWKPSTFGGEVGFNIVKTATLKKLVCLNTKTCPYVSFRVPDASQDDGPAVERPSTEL
- Measurement Protocol: Fast assay for COX-1 and COX-2 activity (PGE2 ELISA), COX-1
- Assay type: biochemical
- Assay Conditions: Table II, pre-incubated 10 minutes at 25° C., arachidonic acid 10 μM, stopped after two minutes, pH 7.5

| Smi | IC50 |
| --- | --- |
| Cc1ccc(-n2nc(C(F)(F)F)cc2-c2ccc(S(C)(=O)=O)c(F)c2)cc1Cl | 2.36 µM |
| Cc1onc(-c2ccc(F)cc2)c1-c1ccc(S(N)(=O)=O)c(F)c1 | > 100 µM |
| Cc1cccc(-n2nc(C(F)(F)F)cc2-c2ccc(S(C)(=O)=O)c(F)c2)c1 | 4.36 µM |
| Cc1ccc(-n2nc(C(F)F)cc2-c2ccc(S(C)(=O)=O)c(F)c2)cc1Cl | > 100 µM |
| CS(=O)(=O)c1ccc(-c2cc(C(F)(F)F)nn2-c2cccc(C(F)(F)F)c2)cc1F | > 100 µM |
| CS(=O)(=O)c1ccc(-c2cc(C(F)(F)F)nn2-c2ccc(OC(F)(F)F)cc2)cc1F | > 100 µM |
| CS(=O)(=O)c1ccc(C2=C(c3ccccc3)C(=O)OC2)cc1F | > 100 µM |
| CS(=O)(=O)c1ccc(-c2cc(C(F)(F)F)nn2-c2ccc(F)cc2)cc1F | 22.6 µM |
| NS(=O)(=O)c1ccc(-c2cscc2-c2ccccc2)cc1F | 29.4 µM |
| CS(=O)(=O)c1ccc(-c2cscc2-c2ccccc2)cc1F | > 100 µM |
| CS(=O)(=O)c1ccc(-c2cc(C(F)(F)F)nn2C2CCCCC2)cc1F | > 100 µM |
| CS(=O)(=O)c1ccc(-c2cc(C(F)F)nn2-c2ccc(F)cc2)cc1F | > 100 µM |
| CS(=O)(=O)c1ccc(-c2cc(C(F)F)nn2-c2cccc(C(F)(F)F)c2)cc1F | > 100 µM |
| NS(=O)(=O)c1ccc(-n2nc(C(F)(F)F)cc2-c2ccc(F)cc2)cc1F | 41.5 µM |
| COc1ccccc1-c1cc(C(F)(F)F)nn1-c1ccc(S(N)(=O)=O)c(F)c1 | > 100 µM |
| NS(=O)(=O)c1ccc(-n2nc(C(F)(F)F)cc2-c2ccc(Cl)cc2)cc1F | 19.9 µM |
| COc1ccc(-c2cc(C(F)(F)F)nn2-c2ccc(S(N)(=O)=O)c(F)c2)cc1F | > 100 µM |
| Cc1ccc(-c2cc(C(F)(F)F)nn2-c2ccc(S(N)(=O)=O)c(F)c2)cc1 | 20.3 µM |
| CS(=O)(=O)c1ccc(-c2cc(C(F)(F)F)nn2-c2ccc(C#N)cc2)cc1F | > 100 µM |
| Cc1ccc(-c2cc(C(F)F)nn2-c2ccc(S(N)(=O)=O)c(F)c2)cc1Cl | 26.9 µM |
| CS(=O)(=O)c1ccc(-c2cc(C(F)F)nn2C2CCCCC2)cc1F | > 100 µM |
